- assayNotes: chemical genetic growth profiling, strain panel (AID 1159580);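 also: tested at 20 µM; growth read once vehicle control cultures reached saturation at 30 °C; 1 = growth at the plate median or of vehicle wells; lower values mean less growth of the strain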
- runParameters: S. cerevisiae deletion strains, growth OD, locus YBR171W, strain sec66, hits give low values
About 2,000 (36%) of roughly 5,500 compounds were called active. About 18% were inconclusive and are not listed. This is one part of the list.
For each record, write down the corresponding normalized growth.
Answers are plain numbers.

Would you please look over these solved cases?
>>> print(df.to_string())
                       compound        testreadout  quantitativeresult
0  CCOC(=O)c1c(C)cc(O)c(C=O)c1O  normalized growth               0.776
1      Cc1cc(O)c(C)c(O)c1C(=O)O  normalized growth                0.99

State the recorded normalized growth for every item in the following list.
1. N=c1ccn2c(n1)O[C@@H]1C2O[C@H](CO)[C@H]1O (stereo partly specified)
2. CC(=O)OCC(=O)[C@H]1CCC2C3CCC4=CC(=O)CC[C@]4(C)C3CC[C@@]21C (stereo partly specified)
3. Cc1cc(O)c(C=O)c(O)c1C(=O)O
4. CCOC(=O)c1c(C)c(Cl)c(O)c(Cl)c1O

[reply]
0.988
0.927
1
0.619

###

- assayNotes: chemical genetic growth profiling, strain panel (AID 1159580)
- runParameters: S. cerevisiae deletion strains, growth OD, locus YDL132W, strain cdc53, hits give low values
Screen size: about 5,500 compounds; about 2,000 (36%) were called active. Not shown: some 18% with an inconclusive outcome. This is one part of the list.
testReadout: normalized growth
Answers are plain numbers.

State the recorded normalized growth for every item in the following list.
1. Cc1cc(Cl)ccc1NNC(=O)c1snnc1C
2. Cc1nnsc1C(=O)NNc1c(Cl)cccc1Cl
3. Cc1nnsc1C(=O)Nc1cc(C(F)(F)F)cc(C(F)(F)F)c1
4. Cc1ccc(-c2csc(-c3cccnc3)n2)c(C)c1
5. O=S(=O)(Nc1cccc2nsnc12)c1cc(Cl)sc1Cl
6. CC(C)(C)CN/C(C#N)=C(/C#N)NCc1cccc(Cl)c1
7. CS(=NC(=O)c1cccc(Cl)c1)c1ccc(OC(=O)c2ccc(Cl)cc2)cc1 (stereo unspecified)

[reply]
0.978
0.982
0.95
0.946
0.969
0.987
0.958

State the recorded normalized growth for every item in the following list.
1. O=C1C(=O)N(CN2CCc3c([nH]c4ccccc34)C2C(F)(F)F)c2ccc(F)cc21 (stereo unspecified)
2. N#Cc1ccc(S(=O)(=O)Nc2ccccc2Oc2ccc(Cl)cc2Cl)cc1
3. O=C(CSc1nnnn1-c1ccccc1)c1ccccc1
4. Cc1cc(NNC(=O)c2ccccc2Cl)nc2c1c(C)nn2C

[reply]
1. 0.972
2. 0.979
3. 0.954
4. 0.978

###

- assayNotes: chemical genetic growth profiling, strain panel (AID 1159580)
- runParameters: S. cerevisiae deletion strains, growth OD, locus YGL078C, strain dbp3, hits give low values
The campaign covered roughly 5,500 compounds. About 2,000 (36%) were called active. Inconclusive results (about 18%) are left out. The list shows a part of the results.
testReadout: normalized growth

Would you please look over these solved cases?
>>> df
                       compound        testreadout           result
0  CCOC(=O)c1c(C)cc(O)c(C=O)c1O  normalized growth    0.57 (active)
1      Cc1cc(O)c(C)c(O)c1C(=O)O  normalized growth  0.95 (inactive)

State the recorded normalized growth for every item in the following list.
1. COc1cc2c(cc1OC)C1C(=O)c3c(OC)cc4c(c3OC1CO2)CCC(C)(C)O4 (configuration not stated)
2. COc1ccc(OC)c(C(O)C(C)N)c1 (configuration not stated)

[reply]
["0.981 (inactive)", "0.997 (inactive)"]

###

- assayNotes: chemical genetic growth profiling, strain panel (AID 1159580)
- runParameters: S. cerevisiae deletion strains, growth OD, locus YJR075W, strain HOC1, hits give low values
About 2,000 (36%) of roughly 5,500 compounds were called active. Not shown: some 18% with an inconclusive outcome. This is one part of the list.
testReadout: normalized growth
One number for each entry.

compound	normalized growth
CC12CCC3C(CCC4=CC(=O)CCC43CO)C1CCC2OC(=O)c1ccccc1 (stereo not given)	1.02

State the recorded normalized growth for every item in the following list.
1. NC(=O)c1ccc[n+]([C@@H]2O[C@H](COP(=O)([O-])OP(=O)(O)OC[C@H]3O[C@@H](n4cnc5c(N)ncnc54)[C@H](O)[C@@H]3O)[C@@H](O)[C@H]2O)c1
2. C[C@H]1O[C@@H](n2cc(F)c(=O)[nH]c2=O)[C@H](O)[C@@H]1O
3. CCS(=O)CCSP(=O)(OC)OC (stereo not given)
4. CC(=O)C1CCC2C3CC(=O)C4=CC(=O)CCC4(C)C3CCC12C (stereo not given)
5. CC(=O)[C@H]1CCC2C3CCC4=CC(=O)CC[C@]4(C)C3CC[C@@]21C (stereo not given in full)
6. CN(N=O)c1ccc(O)c(O)c1
7. CC(=O)[C@H]1CC[C@H]2[C@@H]3CCC4=CC(=O)CC[C@]4(C)[C@H]3CC[C@]12C

[reply]
[1.02, 1.01, 0.99, 0.953, 0.949, 0.93, 0.99]

State the recorded normalized growth for every item in the following list.
1. C[C@]12CCC(=O)C=C1CC[C@@H]1[C@@H]2CC[C@]2(C)C(=O)CC[C@@H]12
2. CN(N=O)c1cc(O)ccc1O

[reply]
1. 0.991
2. 0.989

###

- assayNotes: chemical genetic growth profiling, strain panel (AID 1159580);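 also: tested at 20 µM; growth read once vehicle control cultures reached saturation at 30 °C; 1 = growth at the plate median or of vehicle wells; lower values mean less growth of the strain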
- runParameters: S. cerevisiae deletion strains, growth OD, locus YLR320W, strain mms22, hits give low values
In all, about 5,500 compounds went through this assay and about 2,000 (36%) were called active. About 18% were inconclusive and are not listed. The list shows a part of the results.
testReadout: normalized growth
Answers are plain numbers.

molecule	normalized growth
S=c1nc[nH]c2nc[nH]c12	1.02
CC1(C)OC(=O)NC1=O	0.975
C[C@]12CCC(=O)C=C1CCC1C2CC[C@@]2(C)C1CC[C@@H]2O (some centres not stated)	0.946
CO[C@H]1[C@H](O)[C@H](O[C@H]2CC[C@]3(C)C4CC[C@]5(C)C(C6=CC(=O)OC6)CC[C@]5(O)C4CC[C@@H]3C2)O[C@@H](C)[C@@H]1O (some centres not stated)	1.01
CCOC(=O)C(Cc1ccc(O)cc1)NC(C)=O (configuration not stated)	0.994
CC(=O)OCC(=O)[C@@]1(O)CCC2C3CCC4=CC(=O)CC[C@]4(C)C3C(=O)C[C@@]21C (some centres not stated)	0.993

We now examine a further molecule.
[ask] Annotate the molecule CC(C)(O)[C@@H]1[C@H]2OC(=O)[C@@H]1[C@]1(O)C[C@H]3O[C@]34C(=O)O[C@H]2[C@]14C with its measured normalized growth.
[reply] 1

###

- assayNotes: chemical genetic growth profiling, strain panel (AID 1159580);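 also: tested at 20 µM; growth read once vehicle control cultures reached saturation at 30 °C; 1 = growth at the plate median or of vehicle wells; lower values mean less growth of the strain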
- runParameters: S. cerevisiae deletion strains, growth OD, locus YPL256C, strain CLN2
Among all 5,500 compounds or so, about 2,000 (36%) were called active. Roughly 18% stayed inconclusive and do not appear here. No stated cut-off is given here; in the data, active means normalized growth mostly below about 0.91 (no sharp cut-off); inconclusive means no clear call, values can overlap the other calls; inactive means mostly above about 0.92. The list shows a part of the results.
Valid outcomes are listed here; reply with one: 1 for active, -1 for inactive

Worked examples follow.
molecule	answerLabel
CC(=O)OCC(=O)[C@@]1(O)[C@@H](C)CC2C3CCC4=CC(=O)C=C[C@]4(C)[C@@]3(F)[C@@H](O)C[C@@]21C (some centres not stated)	-1
Cc1ccc2nc(-c3ccc(Cl)cc3)cn2c1	-1

[ask] Hi team, can someone confirm the assay call for Nc1nc2ccc(OC(F)(F)F)cc2s1 ?
[reply] -1

[ask] Hi team, can someone confirm the assay call for CC(=O)CSc1nnc(-c2ccc(C(C)(C)C)cc2)n1-c1ccc(Cl)cc1 ?
[reply] -1

[ask] Hi team, can someone confirm the assay call for COc1ccc2cc([C@H](C)CO)ccc2c1 ?
[reply] -1

[ask] Hi team, can someone confirm the assay call for COc1cc2c(cc1OC)Cc1cc(OC)c(OC)cc1Cc1cc(OC)c(OC)cc1C2 ?
[reply] -1

###

- assayNotes: chemical genetic growth profiling, strain panel (AID 1159580);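 also: tested at 20 µM; growth read once vehicle control cultures reached saturation at 30 °C; 1 = growth at the plate median or of vehicle wells; lower values mean less growth of the strain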
- runParameters: S. cerevisiae deletion strains, growth OD, locus YJL187C, strain SWE1 (second series), hits give low values
Hit rate of the full screen: of about 5,500 compounds, about 2,000 (36%) were called active. About 18% were inconclusive and are not listed. Some of the results follow.
testReadout: normalized growth
Numbers only.

compound	normalized growth
C[C@H]1CC2C([C@@H](O)C[C@@]3(C)C2CC[C@]3(O)C(=O)CO)[C@@]2(C)C=CC(=O)C=C12 (stereo partly drawn)	1.01
CN1CCCN=C1COC(=O)C(O)(c1ccccc1)C1CCCCC1 (stereo not drawn)	1.01
CCN(CC)CCNC(=O)c1cc(Br)c(N)cc1OC	0.944

State the recorded normalized growth for every item in the following list.
1. COc1cc2c(cc1OC)C1C(=O)c3c(cc4c(c3O)C=CC(C)(C)O4)OC1CO2 (stereo not drawn)
2. COc1cc2c(cc1OC)C1C(=O)c3c(OC)cc4c(c3OC1CO2)CCC(C)(C)O4 (stereo not drawn)
3. COc1cc2c(cc1OC)C1C(=O)c3ccc4c(c3OC1CO2)CCC(C)(C)O4 (stereo not drawn)
4. S=c1nc[nH]c2nc[nH]c12
5. NC(=O)c1ccc[n+]([C@@H]2O[C@H](COP(=O)([O-])OP(=O)(O)OC[C@H]3O[C@@H](n4cnc5c(N)ncnc54)[C@H](O)[C@@H]3O)[C@@H](O)[C@H]2O)c1
6. COC1=CC(=O)C[C@@H](C)[C@]12Oc1c(Cl)c(OC)cc(OC)c1C2=O

[reply]
1.01
1.02
0.999
0.997
0.987
1.03
